biological target: GlcNAc(a1-4)Gal(b1-4)GlcNAc(b1-3)Gal(b1-4)GlcNAc; assay: glycan array binding signal (z-score within array); higher = stronger binding; conditions: glycan notation: IUPAC condensed, linker removed
The sample as a whole holds a higher share of the strongest signals than the screen did.
Value Kind: glycan array binding signal (z-score)

INSERT INTO assay_data (binder, value_kind, measurement) VALUES
  ('GALT1 615 (Arabidopsis thaliana), Q8L7F9 (protein) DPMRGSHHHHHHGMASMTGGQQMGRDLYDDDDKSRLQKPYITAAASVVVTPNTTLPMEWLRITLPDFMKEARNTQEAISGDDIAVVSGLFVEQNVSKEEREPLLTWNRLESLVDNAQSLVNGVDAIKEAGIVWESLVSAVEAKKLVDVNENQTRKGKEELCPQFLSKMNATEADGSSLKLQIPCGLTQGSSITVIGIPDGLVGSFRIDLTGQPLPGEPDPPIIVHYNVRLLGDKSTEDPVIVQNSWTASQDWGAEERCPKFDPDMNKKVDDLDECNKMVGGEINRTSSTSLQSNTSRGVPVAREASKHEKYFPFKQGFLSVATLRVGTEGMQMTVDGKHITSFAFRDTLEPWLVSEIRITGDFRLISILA', 'glycan array binding signal (z-score)', -0.46),
  ('Eosinophil cationic protein (ECP) (Homo sapiens), P12724 (protein) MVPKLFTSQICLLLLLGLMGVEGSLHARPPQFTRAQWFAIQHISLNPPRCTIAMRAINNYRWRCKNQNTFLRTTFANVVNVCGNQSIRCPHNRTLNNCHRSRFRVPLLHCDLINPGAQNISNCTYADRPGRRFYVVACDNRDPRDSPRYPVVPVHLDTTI', 'glycan array binding signal (z-score)', 8.33),
  ('OS9-MRH (Homo sapiens), Q13438 (protein) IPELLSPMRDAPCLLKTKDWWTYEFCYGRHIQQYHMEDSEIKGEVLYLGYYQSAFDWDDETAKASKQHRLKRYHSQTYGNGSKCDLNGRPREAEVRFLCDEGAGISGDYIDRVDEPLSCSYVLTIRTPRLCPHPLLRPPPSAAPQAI', 'glycan array binding signal (z-score)', -0.159);
